# System: MGC-803
# assayName: Antiproliferative activity against human MGC-803 cells assessed as reduction in cell growth by MTT assay
# Assay type: functional, cell-based
propertyName: IC50 (µM)

* CC(C)c1ccc2c(c1)CCC1[C@](C)(C(=O)OCC(O)CNc3cccc(Cl)c3)CCC[C@]21C (stereo partly drawn) | 7.1
* COc1cccc(N2CC(COC(=O)[C@]3(C)CCC[C@]4(C)c5ccc(C(C)C)cc5CCC34)OC2=O)c1 (stereo partly drawn) | 3.82
* COc1ccccc1N1CC(COC(=O)[C@]2(C)CCC[C@]3(C)c4ccc(C(C)C)cc4CCC23)OC1=O (stereo partly drawn) | 3.82
* CC(C)c1ccc2c(c1)CCC1[C@](C)(C(=O)OCC3CN(c4cccc(Cl)c4)C(=O)O3)CCC[C@]21C (stereo partly drawn) | 3.82
* CC(C)c1ccc2c(c1)CCC1[C@](C)(C(=O)OCC(O)CNc3ccc(Br)cc3)CCC[C@]21C (stereo partly drawn) | 7.1
* CC(C)c1ccc2c(c1)CCC1[C@](C)(C(=O)OCC(O)CNc3cccc(F)c3)CCC[C@]21C (stereo partly drawn) | 7.1
* Cc1cccc(NCC(O)COC(=O)[C@]2(C)CCC[C@]3(C)c4ccc(C(C)C)cc4CCC23)c1 (stereo partly drawn) | 7.1
* COc1ccccc1NCC(O)COC(=O)[C@]1(C)CCC[C@]2(C)c3ccc(C(C)C)cc3CCC12 (stereo partly drawn) | 7.1
* CC(C)c1ccc2c(c1)CCC1[C@](C)(C(=O)OCC3CN(c4cccc(F)c4)C(=O)O3)CCC[C@]21C (stereo partly drawn) | 3.82
* Cc1ccccc1NCC(O)COC(=O)[C@]1(C)CCC[C@]2(C)c3ccc(C(C)C)cc3CCC12 (stereo partly drawn) | 7.1
* CC(C)c1ccc2c(c1)CCC1[C@](C)(C(=O)OCC(O)CNc3ccccc3F)CCC[C@]21C (stereo partly drawn) | 7.1
* COc1cccc(NCC(O)COC(=O)[C@]2(C)CCC[C@]3(C)c4ccc(C(C)C)cc4CCC23)c1 (stereo partly drawn) | 7.1
* CC(C)c1ccc2c(c1)CCC1[C@](C)(C(=O)OCC3CN(c4ccc(Br)cc4)C(=O)O3)CCC[C@]21C (stereo partly drawn) | 3.82
* CC(C)c1ccc2c(c1)CCC1[C@](C)(C(=O)OCC(O)CNc3ccc(F)cc3)CCC[C@]21C (stereo partly drawn) | 7.1
* CC(C)c1ccc2c(c1)CCC1[C@](C)(C(=O)OCC3CN(c4ccc(F)cc4)C(=O)O3)CCC[C@]21C (stereo partly drawn) | 3.82
* C#Cc1cccc(NCC(O)COC(=O)[C@]2(C)CCC[C@]3(C)c4ccc(C(C)C)cc4CCC23)c1 (stereo partly drawn) | 7.1
* Cc1cccc(N2CC(COC(=O)[C@]3(C)CCC[C@]4(C)c5ccc(C(C)C)cc5CCC34)OC2=O)c1 (stereo partly drawn) | 3.82
* Cc1ccccc1N1CC(COC(=O)[C@]2(C)CCC[C@]3(C)c4ccc(C(C)C)cc4CCC23)OC1=O (stereo partly drawn) | 3.82

* * *

Recorded pIC50 by entry
# Tested on: NCI-H460
# assayName: Antiproliferative activity against human NCI-H460 cells assessed as inhibition of cell growth by MTT assay
# Type: functional, cell-based
pIC50: −log10 of the molar value.
propertyName: pIC50

• COc1cccc(NCC(O)COC(=O)[C@]2(C)CCC[C@]3(C)c4ccc(C(C)C)cc4CCC23)c1 (stereo not given in full) = ≤ 4.81
• Cc1cccc(N2CC(COC(=O)[C@]3(C)CCC[C@]4(C)c5ccc(C(C)C)cc5CCC34)OC2=O)c1 (stereo not given in full) = ≤ 5.37
• CC(C)c1ccc2c(c1)CCC1[C@](C)(C(=O)OCC(O)CNc3ccccc3F)CCC[C@]21C (stereo not given in full) = ≤ 4.81
• CC(C)c1ccc2c(c1)CCC1[C@](C)(C(=O)OCC3CN(c4ccc(F)cc4)C(=O)O3)CCC[C@]21C (stereo not given in full) = ≤ 5.37
• CC(C)c1ccc2c(c1)CCC1[C@](C)(C(=O)OCC(O)CNc3cccc(Cl)c3)CCC[C@]21C (stereo not given in full) = ≤ 4.81

* * *

# System: Escherichia coli
# assayName: Antibacterial activity against efflux pump-efficient Escherichia coli MG1655 assessed as bacterial growth inhibition
# Assay type: functional
Rule: MIC below 20 µg/mL gives MET. Equal to or above 20 µg/mL gives NOT MET.

* O=C1O[C@@H](CO)CN1c1ccc(-c2cc(O)ccc2F)c(F)c1 | MET
* CC(=O)NC[C@H]1CN(c2ccc(N3CCOCC3)c(F)c2)C(=O)O1 | MET
* NCc1ncc(-c2ccc(N3C[C@H](CO)OC3=O)cc2F)cc1O | NOT MET
* O=Cc1ccc(-c2ccc(N3C[C@H](CO)OC3=O)cc2F)cc1O | MET
* O=C1O[C@@H](CO)CN1c1ccc(-c2ccccc2)c(F)c1 | MET
* O=C1O[C@@H](CO)CN1c1ccc(-c2ccc(F)c(O)c2)c(F)c1 | MET
* NCc1ccc(-c2ccc(N3C[C@H](CO)OC3=O)cc2F)cc1O | MET
* Nc1ccc(-c2ccc(N3C[C@H](CO)OC3=O)cc2F)cc1O | NOT MET
* NCc1cc(F)c(-c2ccc(N3C[C@H](CO)OC3=O)cc2F)cc1O | NOT MET
* Nc1cc(-c2ccc(N3C[C@H](CO)OC3=O)cc2F)ccc1O | MET
* N#Cc1ccc(O)cc1-c1ccc(N2C[C@H](CO)OC2=O)cc1F | NOT MET
* O=C1O[C@@H](CO)CN1c1ccc(-c2ccc([N+](=O)[O-])c(O)c2)c(F)c1 | NOT MET
* O=C1O[C@@H](CO)CN1c1ccc(-c2cccc(O)c2F)c(F)c1 | NOT MET

* * *

# Tested on: NCI-H460
# assayName: Antiproliferative activity against human NCI-H460 cells assessed as inhibition of cell growth by MTT assay
# Type: functional, cell-based
Recorded IC50 by entry
propertyName: IC50

- Cc1ccccc1NCC(O)COC(=O)[C@]1(C)CCC[C@]2(C)c3ccc(C(C)C)cc3CCC12 (some centres undefined): ≥ 15.6 µM
- COc1ccccc1NCC(O)COC(=O)[C@]1(C)CCC[C@]2(C)c3ccc(C(C)C)cc3CCC12 (some centres undefined): ≥ 15.6 µM
- CC(C)c1ccc2c(c1)CCC1[C@](C)(C(=O)OCC(O)CNc3ccc(Br)cc3)CCC[C@]21C (some centres undefined): ≥ 15.6 µM
- Cc1ccc(N2CC(COC(=O)[C@]3(C)CCC[C@]4(C)c5ccc(C(C)C)cc5CCC34)OC2=O)cc1 (some centres undefined): ≥ 4.3 µM

* * *

# Tested on: NCI-H460
# assayName: Antiproliferative activity against human NCI-H460 cells assessed as inhibition of cell growth by MTT assay
# Assay type: functional, cell-based
Recorded IC50 by entry
propertyName: IC50

* Cc1ccc(NCC(O)COC(=O)[C@]2(C)CCC[C@]3(C)c4ccc(C(C)C)cc4CCC23)cc1 (some centres undefined) | ≥ 15.6 µM
* COc1ccc(N2CC(COC(=O)[C@]3(C)CCC[C@]4(C)c5ccc(C(C)C)cc5CCC34)OC2=O)cc1 (some centres undefined) | ≥ 4.3 µM
* CC(C)c1ccc2c(c1)CCC1[C@](C)(C(=O)OCC3CN(c4ccccc4)C(=O)O3)CCC[C@]21C (some centres undefined) | ≥ 4.3 µM
* C#Cc1cccc(NCC(O)COC(=O)[C@]2(C)CCC[C@]3(C)c4ccc(C(C)C)cc4CCC23)c1 (some centres undefined) | ≥ 15.6 µM

* * *

# System: NCI-H460
# assayName: Antiproliferative activity against human NCI-H460 cells assessed as inhibition of cell growth by MTT assay
# Assay type: functional, cell-based
pIC50: −log10 of the molar value.
Recorded pIC50 by entry
propertyName: pIC50

- COc1cccc(N2CC(COC(=O)[C@]3(C)CCC[C@]4(C)c5ccc(C(C)C)cc5CCC34)OC2=O)c1 (some centres not stated): ≤ 5.37
- COc1ccc(NCC(O)COC(=O)[C@]2(C)CCC[C@]3(C)c4ccc(C(C)C)cc4CCC23)cc1 (some centres not stated): ≤ 4.81
- CC(C)c1ccc2c(c1)CCC1[C@](C)(C(=O)OCC(O)CNc3ccc(Cl)cc3)CCC[C@]21C (some centres not stated): ≤ 4.81
- CC(C)c1ccc2c(c1)CCC1[C@](C)(C(=O)OCC3CN(c4cccc(Cl)c4)C(=O)O3)CCC[C@]21C (some centres not stated): ≤ 5.37
- Cc1cccc(NCC(O)COC(=O)[C@]2(C)CCC[C@]3(C)c4ccc(C(C)C)cc4CCC23)c1 (some centres not stated): ≤ 4.81
- CC(C)c1ccc2c(c1)CCC1[C@](C)(C(=O)OCC3CN(c4ccc(Cl)cc4)C(=O)O3)CCC[C@]21C (some centres not stated): ≤ 5.37
- CC(C)c1ccc2c(c1)CCC1[C@](C)(C(=O)OCC3CN(c4ccc(Br)cc4)C(=O)O3)CCC[C@]21C (some centres not stated): ≤ 5.37
- CC(C)c1ccc2c(c1)CCC1[C@](C)(C(=O)OCC3CN(c4cccc(F)c4)C(=O)O3)CCC[C@]21C (some centres not stated): ≤ 5.37
- CC(C)c1ccc2c(c1)CCC1[C@](C)(C(=O)OCC(O)CNc3ccccc3)CCC[C@]21C (some centres not stated): ≤ 4.81
- C#Cc1cccc(N2CC(COC(=O)[C@]3(C)CCC[C@]4(C)c5ccc(C(C)C)cc5CCC34)OC2=O)c1 (some centres not stated): ≤ 5.37
- CC(C)c1ccc2c(c1)CCC1[C@](C)(C(=O)OCC(O)CNc3cccc(Br)c3)CCC[C@]21C (some centres not stated): ≤ 4.81
- CC(C)c1ccc2c(c1)CCC1[C@](C)(C(=O)OCC3CN(c4ccccc4F)C(=O)O3)CCC[C@]21C (some centres not stated): ≤ 5.37
- CC(C)c1ccc2c(c1)CCC1[C@](C)(C(=O)OCC(O)CNc3cccc(F)c3)CCC[C@]21C (some centres not stated): ≤ 4.81
- CC(C)c1ccc2c(c1)CCC1[C@](C)(C(=O)OCC3CN(c4cccc(Br)c4)C(=O)O3)CCC[C@]21C (some centres not stated): ≤ 5.37
- CC(C)c1ccc2c(c1)CCC1[C@](C)(C(=O)OCC(O)CNc3ccc(F)cc3)CCC[C@]21C (some centres not stated): ≤ 4.81
- COc1ccccc1N1CC(COC(=O)[C@]2(C)CCC[C@]3(C)c4ccc(C(C)C)cc4CCC23)OC1=O (some centres not stated): ≤ 5.37
- Cc1ccccc1N1CC(COC(=O)[C@]2(C)CCC[C@]3(C)c4ccc(C(C)C)cc4CCC23)OC1=O (some centres not stated): ≤ 5.37
